// growth inhibition lookup, one value per entry
test: NCI Yeast Anticancer Drug Screen. Data for the bub3 strain (AID 167); conditions: S. cerevisiae bub3 mutant strain, at 50.0 µM (retest, dose inferred, filed as 5.0), active compounds read high
The panel holds about 79,000 compounds, 15% with a hit somewhere; the sample as a whole holds those more often.
measurementLabel: growth inhibition (%)

[[record]]
compound = "C/C(=N\\NC(=S)N1CCN(c2ccccn2)CC1)c1ncccn1"
readoutnumber = -9

[[record]]
compound = "c1ccc(/C(=N\\Nc2nc3ccccc3s2)c2ccccn2)cc1"
readoutnumber = 87

[[record]]
compound = "CN(C=O)c1ccc2c(c1)Cc1ccccc1-2"
readoutnumber = 55

[[record]]
compound = "CCOC(C)c1ccccc1 (stereo not given)"
readoutnumber = 99

[[record]]
compound = "O=C(C[n+]1ccc2ccccc2c1)c1ccc(-c2ccccc2)cc1"
readoutnumber = 98

[[record]]
compound = "CC(C)Cc1ncc(CC(C)C)n(O)c1=O"
readoutnumber = 99

[[record]]
compound = "CC(=O)Nc1nnc(C)s1"
readoutnumber = 1

[[record]]
compound = "NNC(=O)c1c(SCc2ccccc2)nc2c3ccccc3ccn12"
readoutnumber = 69

[[record]]
compound = "COc1ccc(C(SCC(N)C(=O)O)(c2ccc(OC)cc2)c2ccc(OC)cc2)cc1 (stereo not given)"
readoutnumber = 98

[[record]]
compound = "FC(F)(F)c1nc(S)cc(=S)[nH]1"
readoutnumber = 31

[[record]]
compound = "C[n+]1c(/C=C/c2ccc([N+](=O)[O-])cc2)ccc2ccccc21"
readoutnumber = 92

[[record]]
compound = "Cc1nc(N)sc1N=Nc1cccc(Cl)c1Cl"
readoutnumber = 23

[[record]]
compound = "O=c1c(NO)c([N+](=O)[O-])cnn1-c1ccccc1"
readoutnumber = 28

[[record]]
compound = "O=C1Sc2sc(=S)sc2SC1c1ccccc1 (stereo not given)"
readoutnumber = 95

[[record]]
compound = "O=C(Nc1cccc(Br)c1)Oc1cccc2cccnc12"
readoutnumber = 73

[[record]]
compound = "NC(CCCNc1nc(O)cc(=O)[nH]1)C(=O)O (stereo not given)"
readoutnumber = -73

[[record]]
compound = "CC(=Nc1ccc(N(C)C)cc1)c1ccccc1"
readoutnumber = 88

[[record]]
compound = "C/C(=N\\NC(=S)N(C)CCN(C)C(=S)N/N=C(\\C)c1ccccn1)c1ccccn1"
readoutnumber = 99

[[record]]
compound = "C#CC(C)(C)Nc1c2ccccc2nc2ccccc12"
readoutnumber = 98

[[record]]
compound = "CCNc1ccc2c(c1)Cc1ccccc1-2"
readoutnumber = 33

[[record]]
compound = "O=[N+]([O-])c1ccc2c(c1)Cc1cc(O)c(I)cc1-2"
readoutnumber = 93

[[record]]
compound = "CCCCN(CCCC)Cc1cc(Nc2c3ccc(Cl)cc3nc3ccc(OC)cc23)ccc1O"
readoutnumber = 36

[[record]]
compound = "C1=NCCN=Cc2ccccc2NCCNc2ccccc21"
readoutnumber = 6

[[record]]
compound = "COc1ccc2c(C)cc(N/N=C/c3ccc(OC)c4ccccc34)nc2c1"
readoutnumber = 99

[[record]]
compound = "CN(C)CCOc1ccc2c(c1)C(=O)/C(=C\\c1ncc([N+](=O)[O-])n1C)C2"
readoutnumber = 95

